Test system: HT-29 cells (colorectal adenocarcinoma)
Test: Inhibition of cancer cell proliferation, HT-29 (CellTiterGlo, 72 hours)
Format: cell-based
Conditions: Homo sapiens
Method: Measurement of Inhibition of Cancer Cell Proliferation (HT-29/Colorectal Adenocarcinoma) The following protocol used an HT-29 cell line, which cell line is a model for colorectal adenocarcinoma. […] A white sealing tape was applied to the bottom of the plate, and the plate was read in a luminescence plate reader. […] 50 μl CellTiterGlo was added per well, and the plate was read in a luminescence plate reader after 10 min. […] GI50 was then calculated by GraphPad Prism.

{"chemical_structure": "C=CC(=O)Nc1ccccc1Nc1nc(N[C@H]2CCCN(C(=O)CCCC(=O)NCCCOCCOCCOCCCNC(=O)CCCC[C@@H]3SC[C@@H]4NC(=O)N[C@@H]43)C2)ncc1Cl", "GI50": "> 1 µM"}
{"chemical_structure": "C=CC(=O)Nc1ccccc1Nc1nc(Nc2ccc(F)cc2C#N)ncc1Cl", "GI50": "0.101 to 0.5 µM"}
{"chemical_structure": "C=CC(=O)Nc1ccccc1Nc1nc(N[C@H]2CCCN(C(N)=O)C2)ncc1C(F)(F)F", "GI50": "0.101 to 0.5 µM"}
{"chemical_structure": "C=CC(=O)Nc1ccccc1Oc1nc(Nc2ccc(N3CCN(C(C)=O)CC3)cc2OC)ncc1C(N)=O", "GI50": "> 1 µM"}
{"chemical_structure": "C=CC(=O)Nc1ccccc1Nc1nc(NC2CCC(F)(F)CC2)ncc1Cl", "GI50": "0.101 to 0.5 µM"}
{"chemical_structure": "C=CC(=O)Nc1ccccc1Nc1nc(Nc2cc(CO)c(F)cc2C)ncc1C(F)(F)F", "GI50": "< 0.1 µM"}
{"chemical_structure": "C=CC(=O)Nc1cc(CN2CCN(C(=O)c3cnccn3)CC2)ccc1Nc1nc(Nc2cc(OC)ncc2C)ncc1C(F)(F)F", "GI50": "< 0.1 µM"}
{"chemical_structure": "C=CC(=O)Nc1ccccc1Nc1nc(Nc2cc(OC)nc(N3CCS(=O)(=O)CC3)c2)ncc1C(F)(F)F", "GI50": "< 0.1 µM"}
{"chemical_structure": "C=CC(=O)Nc1cc(C)ccc1Nc1nc(N[C@H]2CCCN(C(C)=O)C2)ncc1Cl", "GI50": "< 0.1 µM"}
{"chemical_structure": "C=CC(=O)Nc1cc(OC)ccc1Nc1nc(Nc2ccc(N(CC)C(C)=O)cc2C#N)ncc1Cl", "GI50": "> 1 µM"}
{"chemical_structure": "C=CC(=O)Nc1cc(C)ccc1Nc1nc(Nc2cc(C(N)=O)ccc2C)ncc1C(F)(F)F", "GI50": "< 0.1 µM"}
{"chemical_structure": "C=CC(=O)Nc1cc(F)ccc1Nc1nc(Nc2cc(C(N)=O)ccc2C)ncc1Cl", "GI50": "< 0.1 µM"}
{"chemical_structure": "C=CC(=O)Nc1ccccc1Nc1nc(NC2CCC(=O)CC2)ncc1C(F)(F)F", "GI50": "< 0.1 µM"}
{"chemical_structure": "C=CC(=O)Nc1ccccc1Nc1nc(N[C@H]2CCCN(C(=O)C=O)C2)ncc1C(F)(F)F", "GI50": "0.101 to 0.5 µM"}
{"chemical_structure": "C=CC(=O)Nc1cc(C)ccc1Nc1nc(Nc2ncc(C(F)(F)F)c(OC)n2)ncc1C(F)(F)F", "GI50": "0.101 to 0.5 µM"}
{"chemical_structure": "C=CC(=O)Nc1ccccc1Nc1nc(Nc2cc(C(N)=O)c(F)cc2C)ncc1C(F)(F)F", "GI50": "< 0.1 µM"}
{"chemical_structure": "C=CC(=O)Nc1cc(C)ccc1Nc1nc(Nc2cc(OC)cnc2Cl)ncc1C(F)(F)F", "GI50": "0.101 to 0.5 µM"}
{"chemical_structure": "C=CC(=O)Nc1ccccc1Nc1nc(Nc2cc(C(N)=O)ccc2OC)ncc1C(F)(F)F", "GI50": "< 0.1 µM"}
{"chemical_structure": "C=CC(=O)Nc1cc(OC)ccc1Nc1nc(Nc2cc(Cl)nc(OC)c2)ncc1Cl", "GI50": "0.101 to 0.5 µM"}
{"chemical_structure": "C=CC(=O)Nc1cc(C)ccc1Nc1nc(Nc2cc(OC)nc(N3CCN(CC)CC3)c2)ncc1C(F)(F)F", "GI50": "< 0.1 µM"}
{"chemical_structure": "C=CC(=O)Nc1ccccc1Nc1nc(N[C@H]2CCCN(S(C)(=O)=O)C2)ncc1Cl", "GI50": "0.101 to 0.5 µM"}
{"chemical_structure": "CCOCCC(=O)Nc1ccccc1Nc1nc(Nc2cc(C(N)=O)ccc2C)ncc1Cl", "GI50": "> 1 µM"}

Each recorded value in this set is attributed to patent US9561228B2.
